- EXPERIMENT: Pharmacokinetics and plasma concentration of Example 101 in Lewis rats after oral administration (CIA study)
- Assay type: in vivo, Lewis rat
- CONDITION SET: Lewis, rat, plasma, oral, 10 mg/kg, plasma, oral, day 0, 10 mg/kg, 0.25 h; read-out: Mean Concentration
PROPERTY NAME: concentration at 0.25 h

The compound CNC(=O)c1[nH]c(C(=O)NC2CCC2)cc1O[C@@H](C)c1ccccc1 (stereo in doubt) [Example 101] showed concentration at 0.25 h equal to 502 ng/mL

* * *

- SYSTEM UNDER TEST: BRD4 BD2 (Homo sapiens (Human))
- EXPERIMENT: NanoBRET bromodomain assay, NanoLuc-BRD4-BD2 fusion in HEK293 cells;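 note: tracer displacement BRET read in transfected cells after 2 h compound exposure at 37 °C, signal in milliBRET units corrected against no-tracer background wells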
- CONDITION SET: BRD4 BD2 (IC50), NanoBRET, HEK293 cells, top concentration 10 μM
pIC50: −log10 of the molar value.
PROPERTY NAME: pIC50

Study these solved cases before continuing.
1. CNC(=O)c1[nH]c(C(=O)NCC(F)(F)F)cc1O[C@@H](C)c1ccccc1F : 6.00 to 6.70
2. CCNC(=O)c1cc(OC(C)c2ccccc2F)c(C(=O)NC)[nH]1 (single isomer, unassigned) [Example 21] : < 5.00
3. CNC(=O)c1[nH]c(-c2ccccc2)cc1O[C@@H](C)c1ccccc1 : 5.00 to 6.00
4. CCNC(=O)c1cc(OC(C)c2cccc(F)c2)c(C(=O)NC)[nH]1 (racemic) : 6.00 to 6.70

// returns pIC50 for CCNC(=O)c1cc(OC(COC)c2ccccc2)c(C(=O)NC)[nH]1 (racemic) with BRD4 BD2 (Homo sapiens (Human)); value = < 5.00

// returns pIC50 for CNC(=O)c1[nH]c(C(=O)NC23CC(O)(C2)C3)cc1O[C@@H](C)c1ccccc1 with BRD4 BD2 (Homo sapiens (Human)); value = 6.70 to 7.30

// returns pIC50 for CCNC(=O)c1cc(OC(C)c2ccc(Cl)cc2)c(C(=O)NC)[nH]1 (racemic) [Example 122] with BRD4 BD2 (Homo sapiens (Human)); value = 6.70 to 7.30

// returns pIC50 for CNC(=O)c1[nH]c(C(=O)NC2CCC(F)(F)CC2)cc1OC(C)c1ccccc1 (single isomer, unassigned) [Example 103] with BRD4 BD2 (Homo sapiens (Human)); value = 6.70 to 7.30

// returns pIC50 for CCNC(=O)c1cc(OC(C)c2ccccc2C(F)(F)F)c(C(=O)NC)[nH]1 (racemic) with BRD4 BD2 (Homo sapiens (Human)); value = 6.70 to 7.30

// returns pIC50 for CNC(=O)c1[nH]c(-c2ccccc2F)cc1O[C@@H](C)c1ccccc1 with BRD4 BD2 (Homo sapiens (Human)); value = 5.00 to 6.00

// returns pIC50 for CCNC(=O)c1cc(OC(c2ccccc2)c2ccccc2)c(C(=O)NC)[nH]1 with BRD4 BD2 (Homo sapiens (Human)); value = 6.70 to 7.30

// returns pIC50 for CCNC(=O)c1cc(OC(C)c2ccc(Cl)cc2)c(C(=O)NC)[nH]1 (single isomer, unassigned) [Example 19] with BRD4 BD2 (Homo sapiens (Human)); value = < 5.00

// returns pIC50 for CNC(=O)c1[nH]c(-c2ncc(C)[nH]2)cc1O[C@@H](C)c1ccccc1 [Example 23] with BRD4 BD2 (Homo sapiens (Human)); value = > 7.30

// returns pIC50 for CNC(=O)c1[nH]c(C(=O)N[C@H]2CCC(F)(F)C2)cc1O[C@@H](C)c1ccccc1 with BRD4 BD2 (Homo sapiens (Human)); value = 6.00 to 6.70

// returns pIC50 for CCNC(=O)c1cc(OC(C)c2ccc(Br)cc2)c(C(=O)NC)[nH]1 (single isomer, unassigned) [Example 49] with BRD4 BD2 (Homo sapiens (Human)); value = > 7.30

// returns pIC50 for CCNC(=O)c1cc(OC(C)c2ccnnc2)c(C(=O)NC)[nH]1 (single isomer, unassigned) [Example 78] with BRD4 BD2 (Homo sapiens (Human)); value = < 5.00
